# Tm listing for each entry below
# assay_summary: melting temperature; fluorescence melt of hairpins on a sequencing array, two-state fit, raised by 9.35 °C to match UV melts
# measurement_setup: sodium 0.088 M
result_type: Tm (°C)

INSERT INTO measurements (input_sequence, number) VALUES
  ('GTTGTGGGAAACTGCAAC ((((..(....)..))))', 39.3),
  ('GGAGAAGGAAACTTTTCC (((.(((....))).)))', 31.1),
  ('GATCGTTGTGACGATC ((((((....))))))', 60.2),
  ('GTGTGGGGAAACTCACAC (((((.(....).)))))', 52.3),
  ('GAATGCGGAAACGCATCC (.(((((....))))).)', 42.5),
  ('GATCATATACATGATC ((((((....))))))', 48.1),
  ('GCGATGAGTCGC ((((....))))', 54.8),
  ('GCGGAGGGCCGC ((((....))))', 53.9),
  ('GCCACCGAAAGGTTGGC ((((((....))).)))', 60.5),
  ('GATCTCTGGGAGATC ((((((...))))))', 53.6),
  ('GATAAGGGAAACCTTGTC ((.((((....)))).))', 37.9),
  ('GGCTGCGAAAGCACAGCC ((((((....)))..)))', 57.8),
  ('GTCAGCGAAAGCTTAGAC ((((((....)))..)))', 40),
  ('GCGTGGACACGC ((((....))))', 62),
  ('GGCTGAGGAAACTTGGCC (((..((....))..)))', 43.8),
  ('GAGGTCCGAAAGGAACTC (((.(((....))).)))', 61.5),
  ('GATACACGAAAGTGATC (((.(((....))))))', 36.8),
  ('GGAAATTCGAAAGAATCC (((..(((....))))))', 26),
  ('GTCGGCGAAAGCCTTGAC ((((((....)))..)))', 40.5),
  ('GAACCACGAAAGTGATTC (((.(((....))).)))', 43.7),
  ('GCTATCCGAAAGGAGAGC (((.(((....))).)))', 58.6),
  ('GCCTGCGAAAGCAGTGGC ((((((....)))..)))', 57.1),
  ('GCCGAGCGAAAGCATGGC (((..((....))..)))', 64),
  ('GATACGAAAGTATC (((((....)))))', 56.6),
  ('GATAGACGAAAGTCGATC (((.(((....))).)))', 51.2),
  ('CGCGGATAGTTCCGCG ((((((....))))))', 68.5),
  ('GATCATAGAATGATC ((((((...))))))', 48),
  ('GCCACGCGAAAGCTTAGC ((.(.((....)).).))', 30.1),
  ('GATCCATGATTGGATC ((((((....))))))', 51.9),
  ('GAATACGGAAACGTACTC ((.((((....)))).))', 28.4),
  ('GATGCACGAAAGTGATC (((.(((....))))))', 36.6),
  ('GTCCAGACGAAAGTCGAC (((..(((....))))))', 36.9),
  ('GACCACCGAAAGGTCGTC (((.(((....))).)))', 45.1),
  ('GCTTTAGGAAACCAAAGC (((((.(....).)))))', 35.4),
  ('GATAACGAAAGTTATC ((((((....))))))', 53.9),
  ('GTGTTTACGAAAGTACAC (((..(((....))))))', 36.7),
  ('GATAGCGAAAGCTGGATC ((((((....)))..)))', 29.6),
  ('GCTGACGAAAGTCCTAGC ((((((....)))..)))', 34.3);
